Molecular target: SHP2 (Homo sapiens)
Sequence (Q06124 whole entry): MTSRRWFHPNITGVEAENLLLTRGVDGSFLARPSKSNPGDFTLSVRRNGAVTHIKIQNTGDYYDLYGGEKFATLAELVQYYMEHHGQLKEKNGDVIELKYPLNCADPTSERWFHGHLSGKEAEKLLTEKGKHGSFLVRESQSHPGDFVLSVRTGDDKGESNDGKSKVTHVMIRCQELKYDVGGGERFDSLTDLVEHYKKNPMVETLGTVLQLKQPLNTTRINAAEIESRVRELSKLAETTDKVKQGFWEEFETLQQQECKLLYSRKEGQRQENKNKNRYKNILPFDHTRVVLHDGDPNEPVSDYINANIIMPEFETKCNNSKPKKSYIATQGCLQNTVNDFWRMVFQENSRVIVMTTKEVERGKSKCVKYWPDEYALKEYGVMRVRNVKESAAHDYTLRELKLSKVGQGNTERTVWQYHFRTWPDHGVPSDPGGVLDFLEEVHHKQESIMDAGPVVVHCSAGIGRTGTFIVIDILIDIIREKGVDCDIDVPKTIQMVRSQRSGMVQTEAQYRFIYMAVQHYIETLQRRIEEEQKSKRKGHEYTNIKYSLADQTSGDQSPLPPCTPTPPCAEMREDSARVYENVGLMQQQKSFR
Test: SHP2 enzyme assay (DiFMUP fluorogenic substrate), activation
Details: DiFMUP assay
pEC50: −log10 of the molar value.

| compound | pEC50 |
| --- | --- |
| C[C@H](COc1ccc(NC(=O)Nc2ccc(Cl)c(C(F)(F)F)c2)cc1)[C@H]1CCC2C3CC=C4C(C)(C)C(N)CC[C@]4(C)C3CC[C@@]21C (stereo partly shown) | < 4.30 |
